PROTOCOL: Pre-dissolution procedure: apparent solubility of pure APIs in buffer with predissolved XAT derivatives (HPLC, Noyes-Whitney fit)
Type: physicochemical
MEASUREMENT SETUP: phosphate buffer, 25 °C, pH 6.8, aqueous buffer, thermodynamic from solid, in the absence of TPH (TPH series); 100 mM phosphate buffer pH 6.8, 298 K; read-out: solubility (eq 1)
MEASUREMENT NAME: solubility (µM)
Quick reminder: number only, in µM, skip the unit.

Supply recorded solubility for O=C(O)Cc1ccccc1Nc1c(Cl)cccc1Cl here.
1690

----------
PROTOCOL: Pre-dissolution procedure: apparent solubility of pure APIs in buffer with predissolved XAT derivatives (HPLC, Noyes-Whitney fit)
Format: physicochemical
MEASUREMENT SETUP: phosphate buffer, 25 °C, pH 6.8, aqueous buffer, thermodynamic from solid, in the absence of CFN (CFN series); 100 mM phosphate buffer pH 6.8, 298 K; read-out: solubility (eq 1)
MEASUREMENT NAME: solubility
Answer format: value, then unit.

Supply recorded solubility for O=C(O)Cc1ccccc1Nc1c(Cl)cccc1Cl here.
1760 µM
